Hey, just so you know, these numbers are from PubChem BioAssay (NCI).

Listing of recorded TGI by entry.
tested on: SW-620 colon; experiment: NCI tumour cell line growth inhibition, 48 h

// worked examples, TGI included
> print(dat)
                                   compound        system  measurement.type  measurement
1  C=CC1[C@H]2COC(C)(C)O[C@@H]2CC(=O)C1(C)C (stereo not given in full)  SW-620 colon               TGI     > 100 µM
2  Clc1ccc(Cc2nc3ccccc3nc2-c2cccc(Br)c2)cc1  SW-620 colon               TGI      4.49 µM
3  CCCCCCCNc1nc(C(=O)OCC)ncc1-c1ccc(C(F)(F)F)cc1  SW-620 colon               TGI     > 100 µM
4  O=C(Nc1cccc([N+](=O)[O-])c1)C(=O)C(C(=O)c1ccccc1-c1ccccc1)C1OC(=O)c2ccccc21 (stereo not given)  SW-620 colon               TGI      73.6 µM

For the compound shown here, `Cc1ccc(C(C)(C)C[P+](C)(c2ccccc2)c2ccccc2)cc1` , give the reported TGI.
> 100 µM

Param item: `FC(F)(F)c1cc(-c2nnc3n2N=C(N2CCCC2)CS3)cc(C(F)(F)F)c1`
> 50 µM

And for `NC(=S)N/N=C\c1ccc(OCc2cccc(COc3ccc(/C=N/NC(N)=S)cc3)n2)cc1` ?
> 100 µM

Same read-out for `CC[N+](C)(CC)CCC(O)(c1ccccc1)c1ccccc1` ?
> 100 µM

And for `Nc1cccc2c1C(=O)c1cccc(N)c1C2=O` ?
> 100 µM

Next record, please: `CCc1cccc(C(C)C)c1NC(=O)C(=O)CC(=O)c1c(C)n([O-])c2ccccc2[n+]1=O`
> 100 µM
